target: human ether-à-go-go-related gene (hERG) potassium channel (human, UniProt Q12809); experiment: primary screen, population patch clamp on CHO cells stably expressing hERG; higher = less effect of the substance;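 also: peak tail current of the secondary pulse compared with the same well before compound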
Sequence (Q12809 whole entry, looked up): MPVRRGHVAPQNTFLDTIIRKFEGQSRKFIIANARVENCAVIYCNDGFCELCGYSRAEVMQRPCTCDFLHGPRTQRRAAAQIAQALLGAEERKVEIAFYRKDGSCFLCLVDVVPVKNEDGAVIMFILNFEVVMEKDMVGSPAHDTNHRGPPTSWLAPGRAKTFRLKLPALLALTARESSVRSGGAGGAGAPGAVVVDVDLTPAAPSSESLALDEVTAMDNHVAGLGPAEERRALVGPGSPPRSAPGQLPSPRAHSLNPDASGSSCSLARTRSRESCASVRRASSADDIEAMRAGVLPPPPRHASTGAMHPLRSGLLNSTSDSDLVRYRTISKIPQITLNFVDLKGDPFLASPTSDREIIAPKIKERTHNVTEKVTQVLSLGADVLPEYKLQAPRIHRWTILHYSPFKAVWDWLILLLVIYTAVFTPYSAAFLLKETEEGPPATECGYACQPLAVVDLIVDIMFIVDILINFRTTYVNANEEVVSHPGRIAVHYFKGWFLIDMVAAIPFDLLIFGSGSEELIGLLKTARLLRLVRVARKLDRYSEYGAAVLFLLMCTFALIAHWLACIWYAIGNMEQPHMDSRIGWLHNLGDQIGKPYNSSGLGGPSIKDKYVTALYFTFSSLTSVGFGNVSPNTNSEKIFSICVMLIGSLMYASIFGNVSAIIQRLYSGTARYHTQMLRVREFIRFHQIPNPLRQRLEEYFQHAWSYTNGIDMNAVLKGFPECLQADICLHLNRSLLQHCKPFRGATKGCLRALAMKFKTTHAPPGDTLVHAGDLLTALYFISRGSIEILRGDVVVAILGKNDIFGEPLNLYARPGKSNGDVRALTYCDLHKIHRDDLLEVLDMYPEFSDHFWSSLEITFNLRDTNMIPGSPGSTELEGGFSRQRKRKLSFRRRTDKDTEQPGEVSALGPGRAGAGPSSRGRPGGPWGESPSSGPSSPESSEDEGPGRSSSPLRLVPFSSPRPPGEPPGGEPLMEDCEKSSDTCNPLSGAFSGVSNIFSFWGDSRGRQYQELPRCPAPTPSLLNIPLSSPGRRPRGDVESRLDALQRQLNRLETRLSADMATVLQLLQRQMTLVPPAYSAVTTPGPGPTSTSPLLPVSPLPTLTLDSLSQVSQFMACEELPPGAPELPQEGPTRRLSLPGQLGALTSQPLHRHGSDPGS
In all, about 310,000 compounds went through this assay and about 14,000 (4.5%) showed an effect of 50% or more. The effect is printed as a negative number. The sample as a whole holds a higher share of strong results than the screen did.
Please go through the items and note down their hERG current change (%, negative = inhibition) at 10uM.
Write it as a number; the unit % goes unstated.

Entry `O=C(c1cccc(N2C(=O)c3ccccc3C2=O)c1)N1CCCCCC1` , tested on human ether-à-go-go-related gene (hERG) potassium channel (human, UniProt Q12809), has a reported hERG current change (%, negative = inhibition) at 10uM of 2.21

Entry CC1CCCN(C(=O)c2ccc(Cl)c(S(=O)(=O)N3CCCCCC3)c2)C1 (stereo not shown) , tested on human ether-à-go-go-related gene (hERG) potassium channel (human, UniProt Q12809), has a reported hERG current change (%, negative = inhibition) at 10uM of -76.3

Entry `O=C(c1ccc(Cl)c(S(=O)(=O)N2CCCC2)c1)N1CCCCC1` , tested on human ether-à-go-go-related gene (hERG) potassium channel (human, UniProt Q12809), has a reported hERG current change (%, negative = inhibition) at 10uM of 3.08

Entry `Cl.O=C(/C=C/c1cn(-c2ccccc2)nc1-c1ccc2c(c1)OCCO2)NCCCN1CCOCC1` , tested on human ether-à-go-go-related gene (hERG) potassium channel (human, UniProt Q12809), has a reported hERG current change (%, negative = inhibition) at 10uM of -5.65

Entry CC1CCCC(C)N1CC(O)COCc1ccccc1.Cl (stereo not shown) , tested on human ether-à-go-go-related gene (hERG) potassium channel (human, UniProt Q12809), has a reported hERG current change (%, negative = inhibition) at 10uM of 5.08

Entry Cc1cc(Cl)ccc1OCC(=O)N1C(C)CCCC1C (stereo not shown) , tested on human ether-à-go-go-related gene (hERG) potassium channel (human, UniProt Q12809), has a reported hERG current change (%, negative = inhibition) at 10uM of -6.46

Entry `COc1cc2occc2c2oc(=O)ccc12` , tested on human ether-à-go-go-related gene (hERG) potassium channel (human, UniProt Q12809), has a reported hERG current change (%, negative = inhibition) at 10uM of 0.24

Entry `O=C1c2ccccc2C(=O)N1CCCCN(C(=O)c1cc([N+](=O)[O-])cc([N+](=O)[O-])c1)c1ccc(Cl)cc1` , tested on human ether-à-go-go-related gene (hERG) potassium channel (human, UniProt Q12809), has a reported hERG current change (%, negative = inhibition) at 10uM of 5.87

Entry `Cc1ccc(N(CCCCN2C(=O)c3ccccc3C2=O)C(=O)c2ccc(Cl)s2)cc1` , tested on human ether-à-go-go-related gene (hERG) potassium channel (human, UniProt Q12809), has a reported hERG current change (%, negative = inhibition) at 10uM of 2.79

Entry `NC(=O)c1ccc(NC(=O)COc2ccc(-n3cnnn3)cc2)cc1` , tested on human ether-à-go-go-related gene (hERG) potassium channel (human, UniProt Q12809), has a reported hERG current change (%, negative = inhibition) at 10uM of -4.26

Entry O=C(c1ccc(Cl)c(S(=O)(=O)N2CCCC2)c1)N1CCCC(C(F)(F)F)C1 (stereo not shown) , tested on human ether-à-go-go-related gene (hERG) potassium channel (human, UniProt Q12809), has a reported hERG current change (%, negative = inhibition) at 10uM of -18.1

Entry `CCOC(=O)c1ccc2ncc(C(=O)OCC)c(NCc3ccco3)c2c1` , tested on human ether-à-go-go-related gene (hERG) potassium channel (human, UniProt Q12809), has a reported hERG current change (%, negative = inhibition) at 10uM of -24.7

Entry CCOC(=O)C1CCCN(C(=O)c2ccc(Cl)c(S(=O)(=O)N3CCCCC3)c2)C1 (stereo not shown) , tested on human ether-à-go-go-related gene (hERG) potassium channel (human, UniProt Q12809), has a reported hERG current change (%, negative = inhibition) at 10uM of -13.8

Entry `O=C(c1ccc(Cl)c(S(=O)(=O)N2CCCCC2)c1)N1CCCC1` , tested on human ether-à-go-go-related gene (hERG) potassium channel (human, UniProt Q12809), has a reported hERG current change (%, negative = inhibition) at 10uM of -7.02

Entry CCOC(=O)C1CCCN(C(=O)c2ccc(C)c(S(=O)(=O)N3CCCCC3)c2)C1 (stereo not shown) , tested on human ether-à-go-go-related gene (hERG) potassium channel (human, UniProt Q12809), has a reported hERG current change (%, negative = inhibition) at 10uM of -25.3

Entry CC1CCCC(C)N1CC(O)COc1ccc(Cl)cc1 (stereo not shown) , tested on human ether-à-go-go-related gene (hERG) potassium channel (human, UniProt Q12809), has a reported hERG current change (%, negative = inhibition) at 10uM of -65

Entry `COc1cc(OC)c(C(=O)NC2CCCCCC2)cc1OC` , tested on human ether-à-go-go-related gene (hERG) potassium channel (human, UniProt Q12809), has a reported hERG current change (%, negative = inhibition) at 10uM of -3.27

Entry `CN(Cc1ccc(F)cc1)C(=O)c1cccc(S(=O)(=O)N2CCN(c3ccc(F)cc3)CC2)c1` , tested on human ether-à-go-go-related gene (hERG) potassium channel (human, UniProt Q12809), has a reported hERG current change (%, negative = inhibition) at 10uM of -34.6

Entry CCOC(=O)C1CCCN(C(=O)c2ccc(Cl)c(S(=O)(=O)N3CCCCCC3)c2)C1 (stereo not shown) , tested on human ether-à-go-go-related gene (hERG) potassium channel (human, UniProt Q12809), has a reported hERG current change (%, negative = inhibition) at 10uM of -70.7

Entry `Cc1ccc(NNC(=O)C(O)(c2cccc(C(F)(F)F)c2)c2cccc(C(F)(F)F)c2)cc1` , tested on human ether-à-go-go-related gene (hERG) potassium channel (human, UniProt Q12809), has a reported hERG current change (%, negative = inhibition) at 10uM of -7.55

Entry COC(=O)CCC(=O)OC1(C)C(=O)C2=CN(CC3CC3)C(c3ccc(OC)cc3)=CC2=C(Br)C1=O (stereo not shown) , tested on human ether-à-go-go-related gene (hERG) potassium channel (human, UniProt Q12809), has a reported hERG current change (%, negative = inhibition) at 10uM of 4.74

Entry COC(=O)CCC(=O)OC1(C)C(=O)C2=CN(Cc3ccc(OC)cc3)C(c3ccc(OC)cc3)=CC2=C(Br)C1=O (stereo not shown) , tested on human ether-à-go-go-related gene (hERG) potassium channel (human, UniProt Q12809), has a reported hERG current change (%, negative = inhibition) at 10uM of -58.7

Entry CCOC(=O)C1CCCN(C(=O)c2cccc(N3C(=O)c4ccccc4C3=O)c2)C1 (stereo not shown) , tested on human ether-à-go-go-related gene (hERG) potassium channel (human, UniProt Q12809), has a reported hERG current change (%, negative = inhibition) at 10uM of -18.4

Entry `COc1ccc(S(=O)(=O)N2CCOCC2)cc1N(C)S(=O)(=O)c1ccc(C)cc1` , tested on human ether-à-go-go-related gene (hERG) potassium channel (human, UniProt Q12809), has a reported hERG current change (%, negative = inhibition) at 10uM of 0.666

Entry O=C(c1ccc(Cl)c(S(=O)(=O)N2CCCCC2)c1)N1CCCC(C(F)(F)F)C1 (stereo not shown) , tested on human ether-à-go-go-related gene (hERG) potassium channel (human, UniProt Q12809), has a reported hERG current change (%, negative = inhibition) at 10uM of -31.8

Entry CC1CCCC(C)N1CC(O)COCc1ccccc1F.Cl (stereo not shown) , tested on human ether-à-go-go-related gene (hERG) potassium channel (human, UniProt Q12809), has a reported hERG current change (%, negative = inhibition) at 10uM of 13.2

Entry CN(CC(=O)Nc1ccc(Cl)cc1F)C1CCS(=O)(=O)C1 (stereo not shown) , tested on human ether-à-go-go-related gene (hERG) potassium channel (human, UniProt Q12809), has a reported hERG current change (%, negative = inhibition) at 10uM of -20.6

Entry `CN1CCN(C(=O)N2c3ccccc3CCc3ccccc32)CC1` , tested on human ether-à-go-go-related gene (hERG) potassium channel (human, UniProt Q12809), has a reported hERG current change (%, negative = inhibition) at 10uM of 11.9

Entry COC(=O)CCC(=O)OC1(C)C(=O)C2=CN(C3CC3)C(c3ccc(OC)cc3)=CC2=C(Br)C1=O (stereo not shown) , tested on human ether-à-go-go-related gene (hERG) potassium channel (human, UniProt Q12809), has a reported hERG current change (%, negative = inhibition) at 10uM of 14.4

Entry CC(=O)Nc1ccc(OCC(O)CN2C(C)CCCC2C)cc1.Cl (stereo not shown) , tested on human ether-à-go-go-related gene (hERG) potassium channel (human, UniProt Q12809), has a reported hERG current change (%, negative = inhibition) at 10uM of 19.1

Entry Cc1cc(Cl)ccc1OCC(O)CN1C(C)CCCC1C.Cl (stereo not shown) , tested on human ether-à-go-go-related gene (hERG) potassium channel (human, UniProt Q12809), has a reported hERG current change (%, negative = inhibition) at 10uM of -73.2

Entry `CC(=O)N(CCCCN1C(=O)c2ccccc2C1=O)c1ccc(C)cc1` , tested on human ether-à-go-go-related gene (hERG) potassium channel (human, UniProt Q12809), has a reported hERG current change (%, negative = inhibition) at 10uM of -34.5

Entry `CCN(CC)C(=O)CSc1nnc(CNc2ccc(F)cc2)o1` , tested on human ether-à-go-go-related gene (hERG) potassium channel (human, UniProt Q12809), has a reported hERG current change (%, negative = inhibition) at 10uM of 1.13

Entry O=C(c1ccc(Cl)c(S(=O)(=O)N2CCCCCC2)c1)N1CCCC(C(F)(F)F)C1 (stereo not shown) , tested on human ether-à-go-go-related gene (hERG) potassium channel (human, UniProt Q12809), has a reported hERG current change (%, negative = inhibition) at 10uM of -58.9

Entry COc1cccc(OCC(O)CN2C(C)CCCC2C)c1.Cl (stereo not shown) , tested on human ether-à-go-go-related gene (hERG) potassium channel (human, UniProt Q12809), has a reported hERG current change (%, negative = inhibition) at 10uM of 10.8

Entry `COc1ccccc1OCCNC(=O)C(=O)c1c[nH]c2ccccc12` , tested on human ether-à-go-go-related gene (hERG) potassium channel (human, UniProt Q12809), has a reported hERG current change (%, negative = inhibition) at 10uM of 5.02

Entry `CCOc1ncccc1C(=O)OCC(=O)c1ccc(C)c(C)c1` , tested on human ether-à-go-go-related gene (hERG) potassium channel (human, UniProt Q12809), has a reported hERG current change (%, negative = inhibition) at 10uM of -20.2

Entry `COc1ccccc1CN1CCN(Cc2nc(-c3cccs3)no2)CC1` , tested on human ether-à-go-go-related gene (hERG) potassium channel (human, UniProt Q12809), has a reported hERG current change (%, negative = inhibition) at 10uM of -42.8

Entry `O=C(/C=C/c1cn(-c2ccccc2)nc1-c1ccc2c(c1)OCCO2)NCCO` , tested on human ether-à-go-go-related gene (hERG) potassium channel (human, UniProt Q12809), has a reported hERG current change (%, negative = inhibition) at 10uM of -51.1

Entry O=C(c1cccc(N2C(=O)c3ccccc3C2=O)c1)N1CCCC(C(F)(F)F)C1 (stereo not shown) , tested on human ether-à-go-go-related gene (hERG) potassium channel (human, UniProt Q12809), has a reported hERG current change (%, negative = inhibition) at 10uM of -53.9

Source listed as paper PMC4336329.
